Target: T1, recombinant, soluble human ASGR-1 (human, UniProt P07306 62-291)
T1 construct: biotinylated in the binning assay; also called soluble huASGR-1; Soluble ASGR-1 (Amgen)
T1 sequence: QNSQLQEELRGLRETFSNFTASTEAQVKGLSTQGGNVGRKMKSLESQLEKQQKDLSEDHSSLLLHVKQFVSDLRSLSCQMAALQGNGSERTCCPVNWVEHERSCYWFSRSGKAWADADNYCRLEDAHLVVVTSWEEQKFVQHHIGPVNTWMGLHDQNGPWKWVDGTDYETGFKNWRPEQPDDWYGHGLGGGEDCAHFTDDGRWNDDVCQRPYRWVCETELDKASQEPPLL
Assay: Octet BLI dissociation, pH 7.4 minus calcium
I'd appreciate it if you could supply % Change Compared to pH 7.4 + Calcium values for the items below.
Could you give me the number in %? Just the number is fine.

Lookup: Reported % Change Compared to pH 7.4 + Calcium, binder 57A7 (antibody, V domains shown, hybridoma mAb) VH: QVQLVQSGAEVKKPGASVKVSCKASGYTFTGYHIHWVRQAPGQDLEWMGWINPNNNGTNYAQKFQGRVTMTRDTSISTAYMELSRLRSDDTAVYYCARDGRSGFDYWGQGTLVTVSS VL: DIQMTQSPSSVSASVGDRVTITCRASQGISRWLAWYQQKPGKAPNLLIYAASNLQSGVPSRFSGSGSGTDFTLTISSLQPEDFATYYCQQANSFPFTFGPGTKVDIK : ____
Found: 13

Lookup: Same read-out for 50G9 (antibody, V domains shown, hybridoma mAb) VH: QVQLVESGGGVVQPGRSLRLSCAASGFIFSSYGMHWVRQAPGKGLEWVAVISQDGIIRYYADSVKGRFTISRDNSKNTLYLQMNSLRAEDTAVYYCARDVKQWLVRTYGMDVWGQGTTVTVSS VL: SYELTQPPSVSVSPGQTASITCSGDKLGDKYACWYQQKPGQSPVLVIYQDSKRPSGIPERFSGSNSGNTATLTISGTQARDEAEYYCQARNSRRGVFGGGTRLTVL ?
Found: 37

Lookup: Would you mind doing 53F7 (antibody, V domains shown, hybridoma mAb) VH: QVQLVQSGAEVKKPGASVKVSCKASGYTFTGYHMHWVRQAPGQGLEWMGWINPNNNGTNYAQKFQGRVTMTRDTSISTAYMELNRLTSDDTAVYYCARDGTSSFDYWGQGTLVTVSS VL: DIQMSQSPSSVSASVGDRVTITCRASQGISRWLAWYQQKPGKAPNLLIYAASSLQSGVPSRFSGSGSGTDFTLTISSLQPEDFAIYYCQQANSFPFTFGPGTKVDIK as well?
Found: 9

Lookup: Repeat with 51E9 (antibody, V domains shown, hybridoma mAb) VH: QVQLVQSGAEVKKPGASVKVSCKASRYTFTGYHIHWVRQAPGQGLEWMGWINPNTNGTQYAQKFQGRVTMTRDTSISTAYMELSRLRSDDTAVYYCARDGTSSFDYWGQGTLVTVSS VL: DIQMTQSPSSVSASVGDRVTITCRASQGISSWLAWYQQKPGKAPKLLIYVASSLQSGVPSRFSGSGSGTDFTLTIRSLQPEDFATYYCQQAKSFPFTFGPGTKVDIK
Found: 3

Lookup: Also 62H10 (antibody, V domains shown, hybridoma mAb) VH: EVQLVESGGGLVKPGGSLRLSCAASGFTFSSYSMNWVRQAPGKGLEWVSSISSSSSYIYYADSVKGRFTISRDNAKNSLYLQMNSLRAEDTAVYYCARGGSRGFDPWGQGTLVTVSS VL: DIQMTQSPSSLSASVGDRVTITCRASQSITSYLNWYQQKPGKVPKLLISTASSLQSGVPSRFSGSGSGTDFTLTISSLQPEDFATYYCQQSHSFPFTFGPGTNVDFK ?
Found: 13
